Listed compounds paired with reported pIC50
TESTED ON: IDH2 R140Q (Homo sapiens, UniProt P48735, R140Q)
Sequence (P48735 40-452 R140Q): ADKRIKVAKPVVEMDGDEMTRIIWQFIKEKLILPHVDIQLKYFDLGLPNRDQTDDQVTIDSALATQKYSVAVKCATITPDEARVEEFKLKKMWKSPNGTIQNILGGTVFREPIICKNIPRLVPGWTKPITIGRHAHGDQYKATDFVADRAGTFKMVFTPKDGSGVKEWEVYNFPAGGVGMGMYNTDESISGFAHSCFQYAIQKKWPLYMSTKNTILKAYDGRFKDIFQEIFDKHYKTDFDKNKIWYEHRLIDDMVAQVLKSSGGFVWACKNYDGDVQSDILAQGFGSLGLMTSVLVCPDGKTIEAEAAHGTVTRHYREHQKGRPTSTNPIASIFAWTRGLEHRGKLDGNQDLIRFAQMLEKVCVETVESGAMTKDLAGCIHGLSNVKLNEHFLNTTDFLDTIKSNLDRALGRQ
ASSAY PROCEDURE: IDH2 R140Q enzymatic assay (NADPH cofactor depletion, diaphorase/resazurin readout)
Format: biochemical
MEASUREMENT SETUP: IDH2 R140Q enzyme, 16 hours preincubation, class symbols; read-out: Enz R140Q
pIC50: −log10 of the molar value.

- SMILES TEXT: "CC(C)(C)Nc1cc(Nc2cc(C(F)(F)F)ccn2)nc(-c2cccc(C(F)(F)F)n2)n1"
  pIC50: "7.00 to 7.30"

# lookup: pIC50 of CC(C)Nc1nc(Nc2ccnc(C(F)(F)F)c2)cc(-c2cccc(C(F)(F)F)n2)n1 > 7.30

Note, next up: CC(C)Nc1cc(Nc2ccccn2)nc(-c2cccc(C(F)(F)F)n2)n1 > 7.30

Note, next up: CC(C)(C)Nc1cc(Nc2cc(C3(C#N)CC3)ccn2)nc(-c2cccc(C(F)(F)F)n2)n1 7.00 to 7.30

Note, next up: CC(C)C(=O)Nc1cc(Nc2ccccc2)nc(-c2ccccc2)n1 > 7.30

Note, next up: COc1ccc(CNc2cc(Nc3ccnc(C(F)(F)F)c3)nc(-c3cccc(C(F)(F)F)n3)n2)cc1 7.00 to 7.30

Note, next up: CC(C)Nc1cc(Nc2cc(C(F)F)ccn2)nc(-c2cccc(C(F)(F)F)n2)n1 > 7.30
